- SYSTEM_NAME: T1, cIAP1 (Homo sapiens, UniProt P61081+Q13490)
- T1 construct: cIAP1(ΔR) (residues 1-555); GST (N, cleaved yes); made in house; host or cells: E. coli BL21 (DE3)
- ASSAY_INFO: SILAC mass spectrometry screen for cIAP1 substrates with NEDDylator^cIAP1 in apoptotic Jurkat cell lysate
- Type: biochemical
- APPLIED_CONDITIONS: Light lysate with NEDDylator^cIAP1, Heavy lysate with Ubc12

>  <MOLECULE>
Putative annexin A2-like protein: potential cIAP1 substrate (protein, UniProt A6NMY6 2-339, looked up) Putative annexin A2-like …: STVHEILCKLSLEGDHSTPPSAYGSVKAYTNFDAERDALNIETAIKTKGVDEVTIVNIVTNRDNAQRQDIVFSYQRRTKKELASALKSALSGHLETVILGLLKTPAQYDASELKASMKGLGTDEDSLIEIICSRTNQELQEINRVYKEMYKTDLEKDIISDTSGDFRKLMVALAKGRRAEDGSVIDYELIDQDAQDLYDAGVKRKGTDVPKWISIMTERSVPHLQKVFDRYKSYSPYDMLESIRKEVKGDLENAFLNLVQRIQNKPLYFADQLYDSMKGKGTRDKVLIRIMVSRSEVDMLKIRSEFKRKYGKSLYYYIQQDTKGDYQKALLYLCGGDD

>  <L/H (Light/Heavy ratio)>
8.75

$$$$
>  <MOLECULE>
Heterogeneous nuclear ribonucleoprotein A0: potential cIAP1 substrate (protein, UniProt Q13151 1-305, looked up) Heterogeneous nuclear …: MENSQLCKLFIGGLNVQTSESGLRGHFEAFGTLTDCVVVVNPQTKRSRCFGFVTYSNVEEADAAMAASPHAVDGNTVELKRAVSREDSARPGAHAKVKKLFVGGLKGDVAEGDLIEHFSQFGTVEKAEIIADKQSGKKRGFGFVYFQNHDAADKAAVVKFHPIQGHRVEVKKAVPKEDIYSGGGGGGSRSSRGGRGGRGRGGGRDQNGLSKGGGGGYNSYGGYGGGGGGGYNAYGGGGGGSSYGGSDYGNGFGGFGSYSQHQSSYGPMKSGGGGGGGGSSWGGRSNSGPYRGGYGGGGGYGGSSF

>  <L/H (Light/Heavy ratio)>
20.7

$$$$
>  <MOLECULE>
SMAC/Diablo homolog, mitochondrial: known IAP substrate (protein, UniProt Q9NR28 22-239, looked up) Diablo IAP-binding …: LCVPVVANFKKRCFSELIRPWHKTVTIGFGVTLCAVPIAQKSEPHSLSSEALMRRAVSLVTDSTSTFLSQTTYALIEAITEYTKAVYTLTSLYRQYTSLLGKMNSEEEDEVWQVIIGARAEMTSKHQEYLKLETTWMTAVGLSEMAAEAAYQTGADQASITARNHIQLVKLQVEEVHQLSRKAETKLAEAQIEELRQKTQEEGEERAESEQEAYLRED

>  <L/H (Light/Heavy ratio)>
53.4

$$$$
